test: chemical genetic growth profiling, strain panel (AID 1159580);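 note: tested at 20 µM; growth read once vehicle control cultures reached saturation at 30 °C; 1 = growth at the plate median or of vehicle wells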; conditions: S. cerevisiae deletion strains, growth OD, locus YBR136W, strain MEC1, stronger effect = lower value
In all, about 5,500 compounds went through this assay and about 2,000 (36%) were called active. Another 18% or so got no clear call; they are omitted. The list shows a part of the results.
Parameter measured: normalized growth

For every listed record, write down its normalized growth.
1. O=C1Nc2ccccc2/C1=C\c1cccc2ccccc12
2. O=S(=O)(Nc1ccccc1Sc1c(Cl)cncc1Cl)c1ccc(Cl)cc1

Result string:
0.97 (inactive)
0.987 (inactive)

For every listed record, write down its normalized growth.
1. COc1ccc(Br)c(C(=O)/C(C#N)=C/c2cccs2)c1
2. Cc1ccc(Sc2ncccc2NS(=O)(=O)c2ccc(Cl)cc2)cc1
3. O=C(Nc1ccc(SC(F)(F)F)cc1)Nc1ccc(Oc2cccc(C(F)(F)F)c2)nc1

Result string:
1. 0.922 (inactive)
2. 0.922 (inactive)
3. 0.987 (inactive)

###

assay: chemical genetic growth profiling, strain panel (AID 1159580);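 note: tested at 20 µM; growth read once vehicle control cultures reached saturation at 30 °C; 1 = growth at the plate median or of vehicle wells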; details: S. cerevisiae deletion strains, growth OD, locus YER155C, strain BEM2 (second series), stronger effect = lower value
The campaign covered roughly 5,500 compounds. About 2,000 (36%) were called active. Not shown: some 18% with an inconclusive outcome. The list shows a part of the results.
Parameter measured: normalized growth
One number for each entry.

Molecule	Readout value
C[C@@H]1O[C@@H](O[C@H]2CC[C@]3(C=O)C4CC[C@]5(C)[C@@H](C6=CC(=O)OC6)CC[C@]5(O)C4CC[C@]3(O)C2)[C@H](O)[C@H](O)[C@H]1O (stereo partly drawn)	0.978
COC(=O)[C@H]1[C@H]2C[C@H]3c4[nH]c5cc(OC)ccc5c4CCN3C[C@H]2C[C@@H](OC(=O)c2cc(OC)c(OC)c(OC)c2)[C@@H]1OC	0.975
COC(=O)N/N=C\c1c[n+]([O-])c2ccccc2[n+]1[O-]	0.982
NCC(O)CC(=O)O (stereo not drawn)	0.997
CC(=O)OC1CC[C@@]2(C)C(CCC3C2CC[C@]2(C)C(C4=CC(=O)OC4)C(OC(C)=O)CC32O)C1 (stereo partly drawn)	1.01

For every listed record, write down its normalized growth.
1. CCCCC(=O)O[C@]1(C(=O)CO)[C@@H](C)CC2C3CCC4=CC(=O)C=C[C@]4(C)[C@@]3(F)C(O)C[C@@]21C (stereo partly drawn)
2. CCC(=O)OCC(=O)[C@@]1(OC(=O)CC)[C@@H](C)CC2C3CCC4=CC(=O)C=C[C@]4(C)C3(F)[C@@H](O)C[C@@]21C (stereo partly drawn)
3. COc1cc2c(cc1OC)-c1c(oc3cc(O)cc(O)c3c1=O)CO2
4. COc1cc(-c2cc(=O)c3c(O)c(OC)c(OC)c(OC)c3o2)cc(OC)c1OC
5. Nc1ccc(S(=O)(=O)Nc2ncccn2)cc1
6. C=CCSSCC=C
7. CCC(=O)OCC(=O)C1(OC(=O)CC)C(C)CC2C3CCC4=CC(=O)C=CC4(C)C3(Cl)C(O)CC21C (stereo not drawn)

Result string:
1: 0.981; 2: 1.01; 3: 1.03; 4: 1; 5: 0.989; 6: 0.951; 7: 0.995

For every listed record, write down its normalized growth.
1. C/C=C(\C)C(=O)O[C@@H]1c2c(ccc3ccc(=O)oc23)OC(C)(C)[C@@H]1OC(C)=O
2. COP(N)(=O)SC (stereo not drawn)
3. C[C@@H]1CC[C@@]23CCC4(C)[C@@](C=CC5[C@@]6(C)CCC(=O)C(C)(C)C6CC[C@]54C)(OC2=O)C3[C@H]1C (stereo partly drawn)
4. CC1(C)C(=O)CC[C@@]2(C)C1C[C@@H](O)[C@@]1(C)C3=CC(=O)O[C@@H](c4ccoc4)[C@]3(C)CCC21 (stereo partly drawn)
5. CC1(C)[C@@H]2CC[C@@]1(C)C(=O)C2
6. OC1(c2ccc(Cl)c(C(F)(F)F)c2)CCN(CCCC(c2ccc(F)cc2)c2ccc(F)cc2)CC1
7. COc1ccc(-c2cc(=O)c3c(O)cc(O)cc3o2)cc1

Result string:
1.03
1.02
1.01
1.03
1.02
0.468
0.966

For every listed record, write down its normalized growth.
1. Oc1ccc2c3c1OC1[C@@H](O)CC[C@@]4(O)[C@@H](C2)N(CC2CCC2)CC[C@]314 (stereo partly drawn)
2. CC1(C)Oc2ccc3ccc(=O)oc3c2CC1O (stereo not drawn)
3. COc1ccc(-c2cc(=O)c3c(O)c(OC)c(OC)c(OC)c3o2)cc1OC

Result string:
1: 0.963; 2: 0.956; 3: 0.939

For every listed record, write down its normalized growth.
1. C[C@@H](CO)NC(=O)C1C=C2c3cccc4[nH]cc(c34)C[C@H]2N(C)C1 (stereo partly drawn)
2. CC(C)C[C@@H](NC(=O)OCC1c2ccccc2-c2ccccc21)C(=O)O

Result string:
[1.08, 1.02]

###

Kindly state normalized growth for each of the entries shown.
assay: chemical genetic growth profiling, strain panel (AID 1159580);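 note: tested at 20 µM; growth read once vehicle control cultures reached saturation at 30 °C; 1 = growth at the plate median or of vehicle wells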; conditions: S. cerevisiae deletion strains, growth OD, locus YNR049C, strain mso1, stronger effect = lower value
Hit rate of the full screen: of about 5,500 compounds, about 2,000 (36%) were called active. Inconclusive results (about 18%) are left out. The list shows a part of the results.
Answers are plain numbers.

Compound	Parameter measured	Readout value
NC[C@H]1O[C@H](O[C@H]2[C@H](O)[C@@H](O[C@H]3O[C@H](CO)[C@@H](O)[C@H](N)[C@H]3O)[C@H](N)C[C@@H]2N)[C@H](N)[C@@H](O)[C@@H]1O	normalized growth	1.02
COC(=O)NC(=S)Nc1ccccc1NC(=S)NC(=O)OC	normalized growth	0.99
CCCCCC(O)C1C(=O)OC(C)C(O)/C=C/C=C/C=C/C=C/C=C(\C)C(O)CC(O)CC(O)CC(O)CC(O)CC(O)CC1O (centres undefined)	normalized growth	0.984

For every listed record, write down its normalized growth.
1. COC(=O)N/N=C\c1c[n+]([O-])c2ccccc2[n+]1[O-]
2. O=S(=O)(O)O
3. CC(=O)OC1CC[C@@]2(C)C(CCC3C2CC[C@]2(C)C(C4=CC(=O)OC4)C(OC(C)=O)CC32O)C1 (some centres undefined)
4. C[C@H]1[C@H](C)CC[C@]2(C(=O)O)CC[C@]3(C)C(=CCC4[C@@]5(C)C[C@@H](O)[C@H](O)[C@@](C)(CO)C5[C@H](O)C[C@]43C)[C@H]12 (some centres undefined)
5. O=C(Oc1ccccc1C(=O)O)c1ccccc1O
6. C[C@@H]1CC[C@@]23CCC4(C)[C@@](C=CC5[C@@]6(C)CCC(=O)C(C)(C)C6CC[C@]54C)(OC2=O)C3[C@H]1C (some centres undefined)
7. C[C@H]1O[C@@H](O[C@H]2[C@@H](O)C[C@H](O[C@H]3[C@@H](O)C[C@H](O[C@H]4CC[C@]5(C)C6CC[C@]7(C)[C@@H](C8=CC(=O)OC8)CC[C@]7(O)C6CC[C@@H]5C4)O[C@@H]3C)O[C@@H]2C)C[C@H](O)[C@@H]1O (some centres undefined)

Result string:
1. 0.983
2. 0.983
3. 0.959
4. 0.987
5. 0.967
6. 0.994
7. 0.977

###

assay: chemical genetic growth profiling, strain panel (AID 1159580);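 note: tested at 20 µM; growth read once vehicle control cultures reached saturation at 30 °C; 1 = growth at the plate median or of vehicle wells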; conditions: S. cerevisiae deletion strains, growth OD, locus YJL187C, strain SWE1 (second series), stronger effect = lower value
About 2,000 (36%) of roughly 5,500 compounds were called active. About 18% were inconclusive and are not listed. The list shows a part of the results.
Note to self: normalized growth under 1 means criterion met, ties and anything higher get criterion not met.

Worked examples follow.
Compound	Answer label
O=C(CCCN1CCC(O)(c2ccc(Cl)cc2)CC1)c1ccc(F)cc1	criterion met
NC[C@@H]1O[C@H](O[C@@H]2[C@@H](CO)OC(O[C@@H]3[C@@H](O)[C@H](N)C[C@H](N)[C@H]3O[C@H]3O[C@H](CO)[C@@H](O)[C@H](O)[C@H]3N)[C@@H]2O)[C@H](N)[C@@H](O)[C@@H]1O (some centres undefined)	criterion met
CCCCC(=O)O[C@]1(C(=O)CO)[C@@H](C)CC2C3CCC4=CC(=O)C=C[C@]4(C)[C@@]3(F)C(O)C[C@@]21C (some centres undefined)	criterion met
CC1=CC(=O)C(C(C)C)=CC1=O	criterion met
COC1=CC(C)[C@@H]2C[C@H]3OC(=O)C[C@H]4C(C)=C(OC)C(=O)C([C@@]34C)[C@@]2(C)C1=O (some centres undefined)	criterion not met

Query string: Identify whether the compound COc1ccc(-c2cc(=O)c3c(O)cc(O)cc3o2)cc1O records normalized growth below 1.
Result string: criterion met

Query string: Identify whether the compound COc1cc(C(=O)O)cc(OC)c1OC records normalized growth below 1.
Result string: criterion not met

Query string: Identify whether the compound CCC(=O)OCC(=O)[C@@]1(OC(=O)CC)[C@@H](C)CC2C3CCC4=CC(=O)C=C[C@]4(C)C3(F)[C@@H](O)C[C@@]21C (some centres undefined) records normalized growth below 1.
Result string: criterion met

Query string: Identify whether the compound O=C(/C=C(\O)c1ccccc1)c1ccccc1O records normalized growth below 1.
Result string: criterion met
